# assay: Ocular tissue concentrations (aqueous humor, vitreous humor, iris, retina, choroid, cornea) after topical ocular, subcutaneous and intravitreal administration
# Type: in vivo, New Zealand White rabbits
# experimental_setup: New Zealand White, rabbit, aqueous humor, other: intravitreal, 2.5 mg per eye, Group 4 intravitreal 2.5 mg per eye; 6.0 hr; read-out: aqueous humor Conc., individual eyes (OD, OS)
Counter-ions that a name gives are not always drawn.
outcome_measure: concentration at 6 hr (µg/mL)
Report the value in µg/mL with no unit label.

Data request, read-out concentration at 6 hr, for COC(=O)N[C@@H](Cc1ccccc1)C(=O)N[C@@H](Cc1ccc(NS(=O)(=O)O)cc1)c1csc(-c2cccs2)n1 [Compound 1 sodium salt]
90.6

Values were extracted from patent US11666558B2.
